- assay_protocol: PAX8 transcriptional activity inhibition in RMG-I – RMG-I cells, luciferase, single concentration, primary screen (AID 652154);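 note: luciferase light reporting Pax8 driven TPO promoter activity; plate controls were median of neutral control wells for no effect and mitoxantrone controls for full effect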
- test_settings: RMG-I TPO-luciferase reporter, SteadyGlo, 24 h; at 12.6 µM; active compounds read high
Hit rate of the full screen: of about 360,000 compounds, about 4,200 (1.2%) were called active. Many of the other results were omitted from the sample, so actives are more common in it than they were.
Criterion: inhibition meeting or surpassing 20%. Met: Satisfied. Not met: Not satisfied.

[[record]]
compound = "COC(=O)[C@@H]1[C@@H](CO)[C@@H]2Cn3c(ccc(-c4ccc(F)cc4)c3=O)[C@H]1N2C(C)=O"
class_assignment = "Not satisfied"

[[record]]
compound = "O=S(=O)(c1ccccc1)N1CCC2CCNC2C1 (centres undefined)"
class_assignment = "Not satisfied"

[[record]]
compound = "OC[C@@H]1[C@H]2c3ccccc3NC[C@H]2N1Cc1cccnc1"
class_assignment = "Not satisfied"


Q: Evaluate CS(=O)(=O)N1CCC2CCNC2C1 (centres undefined) : inhibition at minimum 20%?
Result: Not satisfied

Q: Evaluate COc1cccc(C(c2nnnn2-c2ccc3c(c2)OCCO3)N2CCC3(CC2)C(=O)NCN3c2ccccc2)c1OC (centres undefined) : inhibition at minimum 20%?
Result: Not satisfied

---

- assay_protocol: PAX8 transcriptional activity inhibition in RMG-I – RMG-I cells, luciferase, single concentration, primary screen (AID 652154);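 note: luciferase light reporting Pax8 driven TPO promoter activity; plate controls were median of neutral control wells for no effect and mitoxantrone controls for full effect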
- test_settings: RMG-I TPO-luciferase reporter, SteadyGlo, 24 h; at 12.6 µM; active compounds read high
Among all 360,000 compounds or so, about 4,200 (1.2%) were called active. What follows is part of a selection rich in actives, with near analogues and random picks from the rest.
Assign inhibition to each entry below.

Some entries whose results are on file:
[[record]]
compound = "COC(=O)C1=C(c2ccc(F)cc2OCc2ccccc2)C[C@@H]2CC[C@H]1N2C(=O)NCc1ccc(Cl)cc1"
assay_metric = "inhibition"
result = "24.6% (inactive)"

[[record]]
compound = "COC(=O)C1=C(c2ccc(F)cc2OCc2ccccc2)C[C@@H]2CC[C@H]1N2C(=O)NCc1ccc(OC)c(OC)c1"
assay_metric = "inhibition"
result = "21.7% (inactive)"

[[record]]
compound = "CN(C)CC1Oc2ccccc2OC1(O)c1ccccc1 (centres undefined)"
assay_metric = "inhibition"
result = "78.4% (active)"

[[record]]
compound = "O=C1NCN(c2ccccc2)C12CCN(C(c1cccs1)c1nnnn1C1CCCCC1)CC2 (centres undefined)"
assay_metric = "inhibition"
result = "-2.94% (inactive)"

[[record]]
compound = "CCOC(=O)[C@]12Cc3ccccc3[C@H]1N(C1CCCCC1)C(=O)c1cc(OC)ccc12"
assay_metric = "inhibition"
result = "49.5% (inactive)"


Report inhibition for every entry below.
1. CSCCC(c1nnnn1C(C)(C)C)N1CCC(n2c(=O)[nH]c3ccccc32)CC1 (centres undefined)
2. COC(=O)C1=C(c2ccc(OCc3ccccc3)cc2)C[C@@H]2CC[C@H]1N2C(=O)NCc1cccc(F)c1
3. C/C=C/c1ccc([C@H]2[C@H](CO)N3CCCCN(C(=O)Cc4ccncc4)C[C@@H]23)cc1
4. CCOC(=O)[C@]12Cc3cc(OC)ccc3[C@H]1N(C(C)C)C(=O)c1ccccc12
5. O=C(Cc1ccccc1)N1CCCCN2[C@H](C1)[C@H](c1ccc(C#CC3(O)CCCC3)cc1)[C@@H]2CO
6. COC(=O)C1=C(c2ccc(F)cc2OCc2ccccc2)C[C@@H]2CC[C@H]1N2C(=O)NCc1ccc(C(C)(C)C)cc1
7. COc1ccc(-n2nnnc2C(c2cccc3ccccc23)N2CCC(n3c(=O)[nH]c4ccccc43)CC2)cc1 (centres undefined)
8. N#Cc1cccc(-c2ccc([C@H]3[C@@H](CO)N4CCCCN(C(=O)Cc5cccnc5)C[C@@H]34)cc2)c1

Result:
["32.9% (inactive)", "5.35% (inactive)", "11.3% (inactive)", "-13.7% (inactive)", "12.4% (inactive)", "79% (active)", "63.7% (active)", "-12% (inactive)"]

Q: Query: inhibition; subject: COC(=O)[C@H]1[C@H](CO)[C@H]2Cn3c(ccc(-c4cccc(F)c4)c3=O)[C@@H]1N2Cc1ccccc1
Result: 7.46% (inactive)
